Data provenance: patent US5158963A

# protocol-notes: Acute toxicity in mice
# Parameters: species or system mouse (Slc:ddy male mice)
# conditions-used: in vivo; mouse, oral administration, death rate after 7 days
endpoint-label: LD50 at 168 h (mg/kg)

C#Cc1cccc(C2C(C(=O)OCC)=C(C)NC(C)=C2C(=O)OCC)c1 : 534

---

Each record here notes measured inhibition in vivo at 10 mg/kg.
# Test system: decapitation induced hypoxia
# protocol-notes: Activity against decapitation induced hypoxia in mice
# Assay type: in vivo, mouse (Slc:ddy male mice)
# conditions-used: Mus musculus, 1 h; 10 mg/kg, oral, 60 min before decapitation; duration of gasping vs control; read-out: Inhibition rate
endpoint-label: inhibition in vivo at 10 mg/kg (%)

C#Cc1cccc(C2C(C(=O)OCC)=C(C)NC(C)=C2C(=O)OC(C)C)c1 (centres unmarked) : 8.8
COC(=O)C1=C(C)NC(C)=C(C(=O)OCCN(C)Cc2ccccc2)C1c1cccc([N+](=O)[O-])c1 (centres unmarked) [Nicardipine, reference compound] : 4.2
Fc1ccc(C(c2ccc(F)cc2)N2CCN(C/C=C/c3ccccc3)CC2)cc1 [Flunarizine, reference compound] : 12.1
C#Cc1cccc(C2C(C(=O)OCC)=C(C)NC(C)=C2C(=O)OCC)c1 : 10.8
COCCOC(=O)C1=C(C)NC(C)=C(C(=O)OC(C)C)C1c1cccc([N+](=O)[O-])c1 (centres unmarked) [Nimodipine, reference compound] : 2.1

---

# System: tonic extensive convulsion (maximal electroshock-induced seizures)
# protocol-notes: Activity against maximal electroshock-induced seizures in mice
# Assay type: in vivo, mouse (Slc:ddy male mice)
# conditions-used: 200 mg/kg, oral
endpoint-label: inhibitory activity against tonic extensive convulsion (share of cases)

C#Cc1cccc(C2C(C(=O)OC)=C(C)NC(C)=C2C(=O)OC(C)C)c1 (stereo not drawn) : a third
C#Cc1cccc(C2C(C(=O)OCC)=C(C)NC(C)=C2C(=O)OCC)c1 : all cases
C#Cc1cccc(C2C(C(=O)OCC)=C(C)NC(C)=C2C(=O)OCCC)c1 (stereo not drawn) : two thirds
C#Cc1cccc(C2C(C(=O)OC(C)C)=C(C)NC(C)=C2C(=O)OC(C)C)c1 : a third
C#Cc1cccc(C2C(C(=O)OCC)=C(C)NC(C)=C2C(=O)OCC=C)c1 (stereo not drawn) : all cases
C#Cc1cccc(C2C(C(=O)OCC)=C(C)NC(C)=C2C(=O)OCC=CC)c1 (stereo not drawn) : all cases
C#Cc1cccc(C2C(C(=O)OC)=C(C)NC(C)=C2C(=O)OCC=C(C)C)c1 (stereo not drawn) : two thirds
